The reported measurements were obtained from patent US20200247855A1.

Molecular target: T1, CCL4L1_HUMAN (Homo sapiens, UniProt Q8NHW4)
T1 sequence (Q8NHW4 24-92): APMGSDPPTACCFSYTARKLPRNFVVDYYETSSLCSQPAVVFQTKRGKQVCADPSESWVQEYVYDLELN
Assay: Biolayer interferometry (BLI) binding
REPORTED_PROPERTY: Kd (nM)
Give bare numbers, in nM.

Record excerpt, results attached:
P1243_AMBAM: tick CKBP, Amblyomma americanum; AAM-02 stated identical (protein, listed as Amblyomma americanum) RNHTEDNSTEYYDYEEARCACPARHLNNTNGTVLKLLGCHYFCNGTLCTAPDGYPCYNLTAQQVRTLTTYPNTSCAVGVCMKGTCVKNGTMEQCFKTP
35.4
P985_AMBPA: tick CKBP, Amblyomma parvum (protein, listed as Amblyomma parvum) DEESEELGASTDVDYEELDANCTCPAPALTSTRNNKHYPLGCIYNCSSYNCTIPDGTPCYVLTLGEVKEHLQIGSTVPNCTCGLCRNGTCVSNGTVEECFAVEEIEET
21

Please examine the following record next.
Prompt line: Given P974_AMBCA: tick CKBP, Amblyomma cajennense; ACA-01 stated identical (protein, Amblyomma cajennense, tick CKBP, Amblyomma cajennense; ACA-01 stated identical) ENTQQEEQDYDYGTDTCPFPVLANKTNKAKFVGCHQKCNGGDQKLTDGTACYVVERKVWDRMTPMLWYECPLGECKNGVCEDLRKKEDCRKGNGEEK , state its recorded Kd.
Response line: 23.2
